# PROCEDURE_DETAILS: Chemical stability of compound in aqueous solution assessed as half life at 100 ug/ml and pH 7.4
# Format: physicochemical
EXPERIMENTAL_READOUT: half-life at 100 ug/ml (h)

Examples with answers:
>  <QUERY_SMILES>
O=C(NSc1ccccc1)[C@@H](CCC(F)(F)F)N(Cc1ccc(-c2ncon2)cc1F)S(=O)(=O)c1ccc(Cl)cc1

>  <MEAS_VALUE>
268

$$$$
>  <QUERY_SMILES>
NCCSNC(=O)[C@@H](CCC(F)(F)F)N(Cc1ccc(-c2ncon2)cc1F)S(=O)(=O)c1ccc(Cl)cc1

>  <MEAS_VALUE>
52

$$$$

(1) N#CCCSNC(=O)[C@@H](CCC(F)(F)F)N(Cc1ccc(-c2ncon2)cc1F)S(=O)(=O)c1ccc(Cl)cc1
(2) CCOC(=O)[C@@H](N)CSNC(=O)[C@@H](CCC(F)(F)F)N(Cc1ccc(-c2ncon2)cc1F)S(=O)(=O)c1ccc(Cl)cc1
(3) COC(=O)[C@@H](N)CSNC(=O)[C@@H](CCC(F)(F)F)N(Cc1ccc(-c2ncon2)cc1F)S(=O)(=O)c1ccc(Cl)cc1
(4) N[C@@H](CSNC(=O)[C@@H](CCC(F)(F)F)N(Cc1ccc(-c2ncon2)cc1F)S(=O)(=O)c1ccc(Cl)cc1)C(=O)O
**Query** # ascending order, key=half-life at 100 ug/ml // format: requested-order list of labels
**Result** 3, 2, 4, 1
(3: 15 h, 2: 23 h, 4: 72 h, 1: 197 h)

* * *

# PROCEDURE_DETAILS: Aqueous solubility of compound at pH 2
# Type: physicochemical
# DETAILS: aqueous solution
EXPERIMENTAL_READOUT: solubility (µg/mL)

>  <QUERY_SMILES>
COC(=O)[C@@H](N)CSNC(=O)[C@@H](CCC(F)(F)F)N(Cc1ccc(-c2ncon2)cc1F)S(=O)(=O)c1ccc(Cl)cc1

>  <solubility, µg/mL>
3900

$$$$

(a) N[C@@H](CSNC(=O)[C@@H](CCC(F)(F)F)N(Cc1ccc(-c2ncon2)cc1F)S(=O)(=O)c1ccc(Cl)cc1)C(=O)O
(b) CCOC(=O)[C@@H](N)CSNC(=O)[C@@H](CCC(F)(F)F)N(Cc1ccc(-c2ncon2)cc1F)S(=O)(=O)c1ccc(Cl)cc1
**Query** Between a and b , whose measured solubility reads higher? Answer format: the label of the selected item.
**Result** b

* * *

# PROCEDURE_DETAILS: Aqueous solubility of compound at pH 6.5
# Format: physicochemical
# DETAILS: aqueous solution
EXPERIMENTAL_READOUT: solubility (µg/mL)

>  <QUERY_SMILES>
N[C@@H](CSNC(=O)[C@@H](CCC(F)(F)F)N(Cc1ccc(-c2ncon2)cc1F)S(=O)(=O)c1ccc(Cl)cc1)C(=O)O

>  <solubility / µg/mL>
260

$$$$

(A) NCCSNC(=O)[C@@H](CCC(F)(F)F)N(Cc1ccc(-c2ncon2)cc1F)S(=O)(=O)c1ccc(Cl)cc1
(B) CCOC(=O)[C@@H](N)CSNC(=O)[C@@H](CCC(F)(F)F)N(Cc1ccc(-c2ncon2)cc1F)S(=O)(=O)c1ccc(Cl)cc1
(C) COC(=O)[C@@H](N)CSNC(=O)[C@@H](CCC(F)(F)F)N(Cc1ccc(-c2ncon2)cc1F)S(=O)(=O)c1ccc(Cl)cc1
**Query** Put the compounds in ascending order of solubility. Give your ranking as a list of the labels in the requested order.
**Result** B, C, A

* * *

# PROCEDURE_DETAILS: Chemical stability of compound in aqueous solution assessed as half life at 100 ug/ml and pH 4
# Type: physicochemical
EXPERIMENTAL_READOUT: half-life at 100 ug/ml (days)

>  <QUERY_SMILES>
CCOC(=O)[C@@H](N)CSNC(=O)[C@@H](CCC(F)(F)F)N(Cc1ccc(-c2ncon2)cc1F)S(=O)(=O)c1ccc(Cl)cc1

>  <half-life at 100 ug/ml, days>
10.8

$$$$

(I) COC(=O)[C@@H](N)CSNC(=O)[C@@H](CCC(F)(F)F)N(Cc1ccc(-c2ncon2)cc1F)S(=O)(=O)c1ccc(Cl)cc1
(II) N[C@@H](CSNC(=O)[C@@H](CCC(F)(F)F)N(Cc1ccc(-c2ncon2)cc1F)S(=O)(=O)c1ccc(Cl)cc1)C(=O)O
**Query** // which entry has the larger half-life at 100 ug/ml value, I or II ? Please respond with the label that marks your chosen entry.
**Result** II
(II: 17.4 days, I: 7.71 days)

* * *

# PROCEDURE_DETAILS: Aqueous solubility of compound at pH 2
# Type: physicochemical
# DETAILS: aqueous solution
solubility values for the compounds below.

Just so you know, measured solubility for `O=C(NSc1ccccc1)[C@@H](CCC(F)(F)F)N(Cc1ccc(-c2ncon2)cc1F)S(=O)(=O)c1ccc(Cl)cc1` came out at < 1 µg/mL

Short answer for `N#CCCSNC(=O)[C@@H](CCC(F)(F)F)N(Cc1ccc(-c2ncon2)cc1F)S(=O)(=O)c1ccc(Cl)cc1` : solubility was < 1 µg/mL

Per the record, `NCCSNC(=O)[C@@H](CCC(F)(F)F)N(Cc1ccc(-c2ncon2)cc1F)S(=O)(=O)c1ccc(Cl)cc1` has solubility of > 10000 µg/mL

* * *

# PROCEDURE_DETAILS: Aqueous solubility of compound at pH 6.5
# Type: physicochemical
# DETAILS: aqueous solution
Catalogue of solubility values

>  <QUERY_SMILES>
NC(=O)[C@@H](CCC(F)(F)F)N(Cc1ccc(-c2ncon2)cc1F)S(=O)(=O)c1ccc(Cl)cc1

>  <solubility>
< 1 µg/mL

$$$$
>  <QUERY_SMILES>
O=C(NSc1ccccc1)[C@@H](CCC(F)(F)F)N(Cc1ccc(-c2ncon2)cc1F)S(=O)(=O)c1ccc(Cl)cc1

>  <solubility>
< 1 µg/mL

$$$$

Now for a further molecule.
Reported solubility ( `N#CCCSNC(=O)[C@@H](CCC(F)(F)F)N(Cc1ccc(-c2ncon2)cc1F)S(=O)(=O)c1ccc(Cl)cc1` ) = < 1 µg/mL

* * *

# PROCEDURE_DETAILS: Chemical stability of compound in aqueous solution assessed as half life at 100 ug/ml and pH 4
# Type: physicochemical
The molecules listed here are annotated with their half-life at 100 ug/ml.

>  <QUERY_SMILES>
NCCSNC(=O)[C@@H](CCC(F)(F)F)N(Cc1ccc(-c2ncon2)cc1F)S(=O)(=O)c1ccc(Cl)cc1

>  <half-life at 100 ug/ml>
> 20.8 days

$$$$
>  <QUERY_SMILES>
N#CCCSNC(=O)[C@@H](CCC(F)(F)F)N(Cc1ccc(-c2ncon2)cc1F)S(=O)(=O)c1ccc(Cl)cc1

>  <half-life at 100 ug/ml>
> 20.8 days

$$$$

Query molecule follows.
Just so you know, measured half-life at 100 ug/ml for `O=C(NSc1ccccc1)[C@@H](CCC(F)(F)F)N(Cc1ccc(-c2ncon2)cc1F)S(=O)(=O)c1ccc(Cl)cc1` came out at > 20.8 days
